Assay: Solubility evaluation in organic solvents
Assay type: physicochemical
Details: organic solvent or mixture; room temperature, toluene; read-out: Solubility in toluene

>  <compound>
c1ccc(-c2cc3oc4cc(-c5ccccc5)c5ccccc5c4c3c3ccccc23)cc1 [Example 20]

>  <output-unit>
mg/mL

>  <solubility>
23

$$$$
>  <compound>
CCCCCCCCc1cc2oc3cc(CCCCCCCC)c4ccccc4c3c2c2ccccc12 [Example 18, 5,9-dioctyldinaphtho[2,1-b:1′,2′-d]furan]

>  <output-unit>
mg/mL

>  <solubility>
137

$$$$

The reported measurements were obtained from patent US9537110B2.
